- assay summary: Competitive inhibition of tyrosine hydroxylase (unknown origin)
- Design: species or system Homo sapiens
measure name: pKi
pKi here: minus log base 10 of the concentration, concentration in moles per litre.

So, N[C@@H](Cc1ccc2[nH]cnc2c1)C(=O)O ? Its pKi was 4.70

Where do the numbers come from? From ChEMBL document CHEMBL3272094.
